Reported melting point values follow for various compounds

>  <mol>
COc1cc2nccc(Oc3ccc(NS(=O)(=O)c4ccc(Br)c(Cl)c4)cc3F)c2cc1OC

>  <measurement>
144 to 147 °C

$$$$
>  <mol>
Cc1cc(Oc2ccc(NS(=O)(=O)c3ccsc3)cc2)c2cc(F)ccc2n1

>  <measurement>
195 to 196 °C

$$$$
>  <mol>
COc1cc2nccc(Oc3ccc(NS(=O)(=O)c4cc(Cl)cc(Cl)c4OC)c(C)c3)c2cc1OC

>  <measurement>
159 to 162 °C

$$$$

Attention now turns to another entry.
Documented melting point of `COc1cc2c(Oc3ccc(NS(=O)(=O)c4cccc(-c5ccccc5)c4)c(F)c3)ccnc2cc1OCc1ccccc1` : 228 to 229 °C

* * *

measured.metric: melting point

Illustrative cases are given below, each with its answer.
>  <compound>
COc1cc2nccc(Oc3ccc(NS(=O)(=O)c4ccc(Br)cc4OC(F)(F)F)cc3)c2cc1OC [Example A149]

>  <measurement>
237 to 239 °C

$$$$
>  <compound>
COc1cc2nccc(Oc3ccc(NS(=O)(=O)c4ccc(F)c(F)c4)c(F)c3)c2cc1OC [Example A3]

>  <measurement>
217 to 219 °C

$$$$
>  <compound>
COc1cc2nccc(Oc3ccc(NS(=O)(=O)c4ccc(OC)c5ccccc45)cc3)c2cc1OC [Example A133]

>  <measurement>
240 to 242 °C

$$$$
>  <compound>
COc1cc2nccc(Oc3ccc(NS(=O)(=O)c4ccccc4OC(F)(F)F)cc3F)c2cc1OC [Example A126]

>  <measurement>
203 to 204 °C

$$$$
>  <compound>
COc1cc2c(Oc3ccc(NS(=O)(=O)c4ccccc4Br)cc3F)ccnc2cc1OCCCN1CCC(C)CC1 [Example D18]

>  <measurement>
184 to 186 °C

$$$$
>  <compound>
COc1cc2nccc(Oc3ccc(NS(=O)(=O)c4ccc(Cl)s4)c(F)c3)c2cc1OC [Example A28]

>  <measurement>
187 to 189 °C

$$$$

Documented melting point of COc1cc2nccc(Oc3ccc(NS(=O)(=O)c4ccccc4OC(F)(F)F)c(C)c3)c2cc1OC [Example A112] : 230 to 232 °C

Documented melting point of COc1cc2c(Oc3ccc(NS(=O)(=O)c4ccc(Cl)cc4F)cc3F)ccnc2cc1OCCCN1CCOCC1 [Example D43] : 200 to 203 °C

Documented melting point of COc1cc2c(Oc3ccc(NS(=O)(=O)c4ccc(OC)c5ccccc45)cc3F)ccnc2cc1OCCN1CCOCC1 [Example D13] : 189 to 190 °C

Documented melting point of COc1cc2c(Oc3ccc(NS(=O)(=O)c4ccccc4C(F)(F)F)cc3F)ccnc2cc1OCCCN1CCCC(C)C1 (stereo not shown) [Example D35] : 118 to 121 °C

Documented melting point of COc1cc2nccc(Oc3ccc(NS(=O)(=O)c4cccc(-c5ncccn5)c4)cc3OC)c2cc1OC [Example A143] : 135 to 137 °C

* * *

target: wild type AXL (wtAXL) receptor tyrosine kinase (Homo sapiens); construct: WtAXL cDNA was cloned into vector pLXSN(ESK) and transfected into Phoenix E packaging cells; expressed in transfected cells; host or cells: NIH3T3 N7 mouse fibroblasts, retrovirally infected (clone 22); assay: NIH-3T3-AXL cellular tyrosine kinase assay (inhibition of AXL phosphorylation); format: cell-based; conditions: AXL phosphorylation in NIH-3T3-AXL (clone 22) cells, serum-depleted, 2 h with compound, immunoprecipitation / anti-phosphotyrosine blot
Sequence (P30530 26-894): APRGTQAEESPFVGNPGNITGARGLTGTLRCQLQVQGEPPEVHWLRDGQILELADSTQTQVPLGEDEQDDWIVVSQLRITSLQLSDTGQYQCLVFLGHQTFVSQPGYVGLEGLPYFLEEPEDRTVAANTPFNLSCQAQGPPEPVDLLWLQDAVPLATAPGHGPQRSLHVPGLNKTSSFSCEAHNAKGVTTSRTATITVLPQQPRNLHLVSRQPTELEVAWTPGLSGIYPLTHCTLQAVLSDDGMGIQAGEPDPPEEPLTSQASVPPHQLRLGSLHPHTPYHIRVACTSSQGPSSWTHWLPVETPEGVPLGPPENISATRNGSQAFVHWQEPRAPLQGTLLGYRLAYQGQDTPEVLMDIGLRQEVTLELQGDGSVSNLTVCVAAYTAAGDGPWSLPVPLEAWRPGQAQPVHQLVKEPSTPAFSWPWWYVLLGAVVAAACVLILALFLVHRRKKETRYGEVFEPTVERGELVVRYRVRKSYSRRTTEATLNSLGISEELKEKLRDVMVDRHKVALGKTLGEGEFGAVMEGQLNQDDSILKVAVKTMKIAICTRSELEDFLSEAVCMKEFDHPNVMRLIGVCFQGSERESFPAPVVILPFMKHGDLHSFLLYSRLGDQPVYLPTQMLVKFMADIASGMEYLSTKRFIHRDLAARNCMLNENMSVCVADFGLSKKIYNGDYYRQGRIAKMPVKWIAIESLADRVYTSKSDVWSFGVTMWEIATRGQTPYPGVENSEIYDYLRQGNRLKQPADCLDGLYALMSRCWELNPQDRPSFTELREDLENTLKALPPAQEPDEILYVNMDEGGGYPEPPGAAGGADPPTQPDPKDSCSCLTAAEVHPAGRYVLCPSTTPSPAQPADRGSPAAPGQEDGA
measured.metric: IC50

Illustrative cases are given below, each with its answer.
>  <compound>
COc1cc2nccc(Oc3ccc(NS(=O)(=O)c4ccc(Cl)cc4F)c(F)c3)c2cc1OC [Example A13]

>  <tested.system>
wild type AXL (wtAXL) receptor tyrosine kinase (Homo sapiens)

>  <IC50>
2.9 µM

$$$$
>  <compound>
CCOc1ccc(S(=O)(=O)Nc2ccc(Oc3ccnc4cc(OC)c(OC)cc34)cc2F)cc1C [Example A62]

>  <tested.system>
wild type AXL (wtAXL) receptor tyrosine kinase (Homo sapiens)

>  <IC50>
0.47 µM

$$$$
>  <compound>
COc1cc2nccc(Oc3ccc(NS(=O)(=O)c4ccc5c(c4)CC(=O)N5C)cc3)c2cc1OC [Example A85]

>  <tested.system>
wild type AXL (wtAXL) receptor tyrosine kinase (Homo sapiens)

>  <IC50>
> 3 µM

$$$$

Documented IC50 of COc1cc2nccc(Oc3ccc(NS(=O)(=O)c4ccc(Br)c(Cl)c4)c(C)c3)c2cc1OC [Example A152] : > 10 µM

Documented IC50 of COc1cc2nccc(Oc3ccc(NS(=O)(=O)c4ccc(-c5ccccc5)cc4)cc3OC)c2cc1OC [Example A142] : > 10 µM

Documented IC50 of COc1cc2nccc(Oc3ccc(NS(=O)(=O)Cc4ccccc4)c(F)c3)c2cc1OC [Example A73] : > 3 µM

Documented IC50 of COc1cc2nccc(Oc3ccc(NS(=O)(=O)c4cccc5cnccc45)cc3)c2cc1OC [Example A78] : > 3 µM

Documented IC50 of COc1cc2nccc(Oc3ccc(NS(=O)(=O)c4sc(NC(C)=O)cc4C)c(F)c3)c2cc1OC [Example A7] : > 10 µM
